B1: BEX1 (parent)
chain: HSLRAVSTDPPHHDHHDEFCLMP

# Variants of: B1
# protocol-details: protein stability index of a GFP-peptide fusion (GPS, HEK-293T) (PSI 1-6); higher = more stable;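 also: lentivirally expressed fusions sorted by FACS into six bins by GFP to DsRed ratio, PSI derived from sequencing read proportions per bin multiplied by bin number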
# measurement-conditions: c terminus: native
Use 3 as the dividing line for protein stability index, with the line itself on the Criterion met side and lower values as Criterion not met.

[[record]]
mutant_id = "D17S"
assigned_class = "Criterion not met"

[[record]]
mutant_id = "D17Y"
assigned_class = "Criterion met"

[[record]]
mutant_id = "R4W"
assigned_class = "Criterion not met"

[[record]]
mutant_id = "H1N"
assigned_class = "Criterion not met"

[[record]]
mutant_id = "V6N"
assigned_class = "Criterion not met"

[[record]]
mutant_id = "V6Y"
assigned_class = "Criterion met"

[[record]]
mutant_id = "E18I"
assigned_class = "Criterion not met"

[[record]]
mutant_id = "E18Q"
assigned_class = "Criterion not met"

[[record]]
mutant_id = "P11R"
assigned_class = "Criterion not met"

[[record]]
mutant_id = "V6Q"
assigned_class = "Criterion not met"


Task: Given "L21G" , state whether its protein stability index is at least 3.
Output: Criterion not met

Task: Given "L3T" , state whether its protein stability index is at least 3.
Output: Criterion not met

Task: Given "H1M" , state whether its protein stability index is at least 3.
Output: Criterion not met

Task: Given "M22G" , state whether its protein stability index is at least 3.
Output: Criterion not met

Task: Given "E18P" , state whether its protein stability index is at least 3.
Output: Criterion not met

Task: Given "S2G" , state whether its protein stability index is at least 3.
Output: Criterion not met

Task: Given "L3E" , state whether its protein stability index is at least 3.
Output: Criterion not met

Task: Given "S7Y" , state whether its protein stability index is at least 3.
Output: Criterion not met

Task: Given "P10N" , state whether its protein stability index is at least 3.
Output: Criterion not met

Task: Given "H1D" , state whether its protein stability index is at least 3.
Output: Criterion met

Task: Given "L21R" , state whether its protein stability index is at least 3.
Output: Criterion not met

Task: Given "H1Q" , state whether its protein stability index is at least 3.
Output: Criterion not met

Task: Given "L3I" , state whether its protein stability index is at least 3.
Output: Criterion met

Task: Given "D9T" , state whether its protein stability index is at least 3.
Output: Criterion met

Task: Given "V6H" , state whether its protein stability index is at least 3.
Output: Criterion not met

Task: Given "L21S" , state whether its protein stability index is at least 3.
Output: Criterion not met
